biological target: human Cav2.2α (α1B) subunit, along with the human β3 and α2δ1 auxiliary subunits (Homo sapiens, UniProt Q00975); construct: expressed in transfected cells; plasmids pCIN5-hCav2.2, pCIH-hCav β3, pCIP-α2δ1; assay: hCav2.2 assay (IonWorks planar array electrophysiology); type: cell-based; settings: HEK293 cells; inhibition of current elicited by the 1st depolarising pulse by 50%; read-out: mean pIC50 value (tonic pIC50) (converted)
Sequence (Q00975 whole entry): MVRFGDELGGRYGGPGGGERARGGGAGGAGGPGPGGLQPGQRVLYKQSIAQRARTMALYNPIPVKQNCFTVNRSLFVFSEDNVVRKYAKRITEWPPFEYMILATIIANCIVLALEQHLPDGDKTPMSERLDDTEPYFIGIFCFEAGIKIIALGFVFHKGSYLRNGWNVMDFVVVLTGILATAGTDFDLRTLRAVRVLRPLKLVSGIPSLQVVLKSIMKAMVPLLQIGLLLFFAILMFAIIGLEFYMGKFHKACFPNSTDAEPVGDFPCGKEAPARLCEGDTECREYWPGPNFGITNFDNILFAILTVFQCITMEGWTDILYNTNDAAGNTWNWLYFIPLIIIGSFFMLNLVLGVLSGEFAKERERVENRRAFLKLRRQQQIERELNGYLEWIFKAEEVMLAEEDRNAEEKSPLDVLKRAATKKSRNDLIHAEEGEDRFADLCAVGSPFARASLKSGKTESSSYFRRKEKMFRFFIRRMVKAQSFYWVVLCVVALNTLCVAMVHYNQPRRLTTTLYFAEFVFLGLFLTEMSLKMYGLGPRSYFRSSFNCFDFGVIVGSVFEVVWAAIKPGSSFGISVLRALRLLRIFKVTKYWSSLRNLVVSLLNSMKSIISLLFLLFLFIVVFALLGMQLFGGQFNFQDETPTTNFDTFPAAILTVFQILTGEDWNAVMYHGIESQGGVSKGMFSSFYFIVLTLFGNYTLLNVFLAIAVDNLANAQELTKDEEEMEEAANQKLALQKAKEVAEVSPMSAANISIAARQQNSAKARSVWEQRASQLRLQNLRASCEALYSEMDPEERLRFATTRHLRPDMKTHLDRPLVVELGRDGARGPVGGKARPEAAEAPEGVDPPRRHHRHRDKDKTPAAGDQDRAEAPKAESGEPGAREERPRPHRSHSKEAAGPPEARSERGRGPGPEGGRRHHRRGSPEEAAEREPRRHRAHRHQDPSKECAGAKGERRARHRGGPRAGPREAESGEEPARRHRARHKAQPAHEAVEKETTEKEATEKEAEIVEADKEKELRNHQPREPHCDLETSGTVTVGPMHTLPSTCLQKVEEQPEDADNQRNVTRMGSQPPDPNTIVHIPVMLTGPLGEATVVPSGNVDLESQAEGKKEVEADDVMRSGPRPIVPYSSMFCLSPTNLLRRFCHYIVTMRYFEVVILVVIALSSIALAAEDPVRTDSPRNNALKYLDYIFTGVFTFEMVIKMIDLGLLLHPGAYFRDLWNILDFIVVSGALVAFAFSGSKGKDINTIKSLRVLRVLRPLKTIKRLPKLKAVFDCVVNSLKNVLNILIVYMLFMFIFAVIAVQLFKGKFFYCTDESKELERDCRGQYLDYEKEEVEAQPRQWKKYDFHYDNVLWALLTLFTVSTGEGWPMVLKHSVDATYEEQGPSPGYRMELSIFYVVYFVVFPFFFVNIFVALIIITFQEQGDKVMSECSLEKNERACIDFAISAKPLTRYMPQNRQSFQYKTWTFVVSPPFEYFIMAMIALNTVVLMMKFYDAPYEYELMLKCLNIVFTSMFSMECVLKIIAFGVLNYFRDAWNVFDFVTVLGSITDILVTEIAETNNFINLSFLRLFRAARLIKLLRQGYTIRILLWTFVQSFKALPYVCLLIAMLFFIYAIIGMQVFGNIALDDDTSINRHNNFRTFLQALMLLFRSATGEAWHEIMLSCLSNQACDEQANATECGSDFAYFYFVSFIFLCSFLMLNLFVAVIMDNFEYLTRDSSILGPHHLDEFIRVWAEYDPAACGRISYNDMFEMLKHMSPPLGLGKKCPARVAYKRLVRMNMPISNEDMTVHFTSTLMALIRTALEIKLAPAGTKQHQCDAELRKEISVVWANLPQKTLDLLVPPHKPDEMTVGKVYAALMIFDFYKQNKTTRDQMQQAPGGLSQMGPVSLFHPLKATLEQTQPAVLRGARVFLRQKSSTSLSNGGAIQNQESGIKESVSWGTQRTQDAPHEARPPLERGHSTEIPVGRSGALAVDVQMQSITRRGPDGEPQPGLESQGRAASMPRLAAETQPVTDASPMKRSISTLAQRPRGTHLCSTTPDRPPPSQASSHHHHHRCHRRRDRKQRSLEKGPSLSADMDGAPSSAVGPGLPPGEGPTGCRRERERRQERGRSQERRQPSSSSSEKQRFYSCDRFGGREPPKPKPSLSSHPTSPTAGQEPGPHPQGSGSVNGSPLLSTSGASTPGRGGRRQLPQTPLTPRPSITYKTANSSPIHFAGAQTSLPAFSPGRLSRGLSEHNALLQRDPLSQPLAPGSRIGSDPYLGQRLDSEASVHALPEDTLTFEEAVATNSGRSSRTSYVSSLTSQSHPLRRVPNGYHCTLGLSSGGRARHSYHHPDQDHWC
Sequence (P54284 whole entry partner): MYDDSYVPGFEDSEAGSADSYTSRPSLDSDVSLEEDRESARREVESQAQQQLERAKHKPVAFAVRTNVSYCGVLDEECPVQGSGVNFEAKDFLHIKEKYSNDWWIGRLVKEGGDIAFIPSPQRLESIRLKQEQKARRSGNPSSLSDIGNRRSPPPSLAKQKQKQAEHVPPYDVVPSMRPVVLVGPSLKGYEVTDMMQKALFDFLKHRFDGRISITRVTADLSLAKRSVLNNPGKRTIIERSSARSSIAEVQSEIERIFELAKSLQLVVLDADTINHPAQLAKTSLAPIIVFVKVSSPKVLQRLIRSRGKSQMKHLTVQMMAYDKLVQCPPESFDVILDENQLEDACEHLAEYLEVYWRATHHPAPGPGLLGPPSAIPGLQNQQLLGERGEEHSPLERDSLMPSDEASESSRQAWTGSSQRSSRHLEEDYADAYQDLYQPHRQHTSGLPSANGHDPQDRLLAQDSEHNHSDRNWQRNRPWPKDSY
Sequence (P54289 25-946 partner limits assumed): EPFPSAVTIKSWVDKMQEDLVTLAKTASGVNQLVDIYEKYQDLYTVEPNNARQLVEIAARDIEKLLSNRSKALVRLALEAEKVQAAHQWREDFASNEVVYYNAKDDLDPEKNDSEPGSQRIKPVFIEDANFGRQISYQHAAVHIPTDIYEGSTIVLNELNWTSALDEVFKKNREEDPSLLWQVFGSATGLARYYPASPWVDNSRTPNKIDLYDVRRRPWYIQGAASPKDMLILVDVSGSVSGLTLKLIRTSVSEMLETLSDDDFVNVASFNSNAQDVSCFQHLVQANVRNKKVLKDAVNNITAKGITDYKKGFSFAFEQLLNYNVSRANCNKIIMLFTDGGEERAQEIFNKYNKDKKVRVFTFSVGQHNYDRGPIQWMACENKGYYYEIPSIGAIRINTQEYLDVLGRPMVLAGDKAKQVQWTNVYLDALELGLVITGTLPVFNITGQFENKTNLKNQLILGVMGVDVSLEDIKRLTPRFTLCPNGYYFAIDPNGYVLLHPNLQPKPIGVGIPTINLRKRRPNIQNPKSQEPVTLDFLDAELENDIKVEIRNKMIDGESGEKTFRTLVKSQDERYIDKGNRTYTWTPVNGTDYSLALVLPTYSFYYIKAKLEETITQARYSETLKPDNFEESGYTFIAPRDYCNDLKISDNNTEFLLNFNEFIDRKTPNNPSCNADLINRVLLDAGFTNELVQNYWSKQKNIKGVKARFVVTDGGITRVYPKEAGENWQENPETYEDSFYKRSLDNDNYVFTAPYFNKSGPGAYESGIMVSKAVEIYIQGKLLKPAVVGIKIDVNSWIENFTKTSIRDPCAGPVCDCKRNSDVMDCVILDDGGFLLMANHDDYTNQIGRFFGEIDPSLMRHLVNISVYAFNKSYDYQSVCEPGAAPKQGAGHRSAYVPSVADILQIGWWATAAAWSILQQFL
Sequence (P54289 947-1103 partner limits assumed): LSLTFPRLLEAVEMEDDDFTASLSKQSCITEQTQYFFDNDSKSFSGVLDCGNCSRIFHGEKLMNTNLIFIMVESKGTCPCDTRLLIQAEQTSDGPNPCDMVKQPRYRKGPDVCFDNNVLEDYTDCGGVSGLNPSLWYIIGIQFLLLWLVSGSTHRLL
OBSERVABLE: IC50

Example compounds with recorded IC50:
COMPOUND: O=C1NCCC12CCCN(S(=O)(=O)c1cc(C(F)(F)F)ccc1C(F)(F)F)C2 (stereo not drawn)
IC50: ≥ 31.6 µM
--
COMPOUND: CN1CCC2(CCCN(S(=O)(=O)c3ccc(C(F)(F)F)cc3)C2)C1=O (stereo not drawn)
IC50: ≥ 31.6 µM
--
COMPOUND: Cc1ccc(C(F)(F)F)cc1S(=O)(=O)N1CCCC2(CCNC2=O)C1 (stereo not drawn)
IC50: ≥ 31.6 µM
--
COMPOUND: CN1CCCC2(CCCN(S(=O)(=O)c3ccc(C(F)(F)F)cc3)C2)C1=O (stereo not drawn)
IC50: ≥ 31.6 µM

Item O=C1OCCC12CCCN(S(=O)(=O)c1ccc(OC(F)(F)F)cc1)C2 (stereo not drawn) has what recorded IC50?
≥ 31.6 µM

Item CCOc1ccc(S(=O)(=O)N2CCCC3(CCCN(C)C3=O)C2)cc1 (stereo not drawn) has what recorded IC50?
≥ 31.6 µM

From: patent US20130109711A1
